All figures here come from paper PMC6264179.

target or test system: α-Glucosidase (EC.3.2.1.20)
method notes: α-Glucosidase inhibition assay (p-nitrophenyl-α-D-glucopyranoside substrate, absorbance at 405 nm)
Assay type: biochemical
test parameters: in vitro; pH 6.8 phosphate buffer, 37 °C, 15 min; acarbose positive control; read-out: IC50 (mM ± SEM, mM), α-glucosidase inhibitory activity
measured metric: IC50 (mM)

// below: answered compounds
{"compound": "CC1(C)CCC2(C(=O)OC3OC(CO)C(O)C(O)C3O)CCC3(C)C(=CCC4C5(C)CC(=O)C(O)C(C)(C)C5CCC43C)C2C1O (stereo not shown)", "measured metric": "IC50", "u": "mM", "measured result": 1.88}
{"compound": "C[C@@H]1CC[C@]2(C(=O)O[C@@H]3O[C@H](CO)[C@@H](O)[C@H](O)[C@H]3O)CC[C@]3(C)C(=CCC4[C@@]5(C)CC(=O)[C@H](O)C(C)(C)C5CC[C@]43C)C2[C@@]1(C)O (stereo partly drawn) [Compound 3, 2-oxopomolic acid β-D-glucopyranoside]", "measured metric": "IC50", "u": "mM", "measured result": 2.22}

[a] CC1(C)C(=O)[C@H](O)C[C@@]2(C)C1CC[C@]1(C)C2CC=C2C3[C@@H](O)C(C)(C)CC[C@]3(C(=O)O[C@@H]3O[C@H](CO)[C@@H](O)[C@H](O)[C@H]3O)CC[C@]21C (stereo partly shown)
[b] C[C@@H]1CC[C@]2(C(=O)O[C@@H]3O[C@H](CO)[C@@H](O)[C@H](O)[C@H]3O)CC[C@]3(C)C(=CCC4[C@@]5(C)C[C@@H](O)[C@@H](O)C(C)(C)C5CC[C@]43C)C2[C@@]1(C)O (stereo partly shown) [Compound 9, kaji-ichigoside Fl]
Req: Please state the entry with greater IC50 among a and b . Identify your selection by its label.
Resp: b
